Cited source for all entries: ChEMBL document CHEMBL1147999

- ASSAYED TARGET: Human immunodeficiency virus type 1 integrase (Human immunodeficiency virus 1)
- Sequence (Q7ZJM1 whole entry): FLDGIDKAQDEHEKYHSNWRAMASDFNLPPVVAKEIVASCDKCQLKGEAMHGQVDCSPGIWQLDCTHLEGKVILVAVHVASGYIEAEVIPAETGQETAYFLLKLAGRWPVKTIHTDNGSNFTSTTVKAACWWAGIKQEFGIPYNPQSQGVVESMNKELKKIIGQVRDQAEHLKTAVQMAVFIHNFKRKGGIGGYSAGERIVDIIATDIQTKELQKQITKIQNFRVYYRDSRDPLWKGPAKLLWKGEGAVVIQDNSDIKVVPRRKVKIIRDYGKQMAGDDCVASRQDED
- ASSAY PROTOCOL: Inhibition of recombinant HIV1 integrase expressed in Escherichia coli
PROPERTY NAME: IC50 (µM)

Guide cases for IC50, answers given:
>  <COMPOUND>
CC(C)CC(NC(=O)/C=C/c1ccc(O)c(O)c1)C(=O)O (stereo not given)

>  <PROPERTY NAME>
IC50

>  <VALUE UNIT>
µM

>  <OBSERVED RESULT>
130

$$$$
>  <COMPOUND>
O=C(O)CNC(=O)/C=C/c1ccc(O)c(O)c1

>  <PROPERTY NAME>
IC50

>  <VALUE UNIT>
µM

>  <OBSERVED RESULT>
172

$$$$
>  <COMPOUND>
O=C(/C=C/c1ccc(O)c(O)c1)NC(Cc1ccc(O)cc1)C(=O)O (stereo not given)

>  <PROPERTY NAME>
IC50

>  <VALUE UNIT>
µM

>  <OBSERVED RESULT>
129

$$$$

A = CC(NC(=O)/C=C/c1ccc(O)c(O)c1)C(=O)O (stereo not given)
B = O=C(O)COC(=O)/C=C/c1ccc(O)c(O)c1
C = O=C(/C=C/c1ccc(O)c(O)c1)NC(Cc1ccccc1)C(=O)O (stereo not given)
query: Rank items: key IC50, increasing. The response must list the labels following the requested ordering.
result: B, C, A
(B: 10.5 µM, C: 95 µM, A: 148 µM)

1 = CC(OC(=O)/C=C/c1ccc(O)c(O)c1)C(=O)O (stereo not given)
2 = O=C(/C=C/c1ccc(O)c(O)c1)NC(Cc1ccc(O)c(O)c1)C(=O)O (stereo not given)
query: Lower value of IC50 belongs to which: 1 or 2 ? Please respond with the label that marks your chosen entry.
result: 2
